Listed here are molecules together with their documented growth.
- Tested on: E. coli TESEC Mtb Alr
- Procedure details: growth (OD600 after 10 h); higher = more growth (less inhibition)
- Cond: arabinose 100 nM; compound 0.1 mM; raw OD600 reference: median of DMSO wells 0.413, cell-free background 0.052
Where a name gives a salt, the structure may show the parent alone.

Molecule | growth
COc1cc2c(cc1OC)C(C)NCC2 (centres undefined) | 0.408
CC(Cc1ccccc1)NCCC(c1ccccc1)c1ccccc1 (centres undefined) [Prenylamine lactate] | 0.276
C[C@]12CC[C@H](O)C[C@H]1CC[C@@H]1[C@@H]2CC[C@]2(C)[C@@H](C3=CC(=O)OC3)CC[C@]12O | 0.41
O=P1(NCCCl)OCCCN1CCCl (centres undefined) [Ifosfamide] | 0.417
CN1[C@@H]2CC[C@H]1C[C@@H](OC(=O)C(CO)c1ccccc1)C2 (some centres undefined) [Atropine sulfate monohydrate] | 0.41

Task item: # get_value(readout='growth', item= CC[N+]1(C)CCCC(OC(=O)C(O)(c2ccccc2)c2ccccc2)C1 (centres undefined) [Pipenzolate bromide] )
Reply: 0.409

Task item: Request the reported growth associated with `O=C(CCCN1CCC2(CC1)C(=O)NCN2c1ccccc1)c1ccc(F)cc1`
Reply: 0.409

Task item: Need growth of `C[C@]12C/C(=C/O)C(=O)C[C@@H]1CC[C@@H]1[C@@H]2CC[C@@]2(C)[C@H]1CC[C@]2(C)O` , thanks.
Reply: 0.379

Task item: Look up growth for this molecule: `Fc1ccc(C(OCCN2CCN(CCCc3ccccc3)CC2)c2ccc(F)cc2)cc1`
Reply: 0.235

---

- System: E. coli TESEC Alr+ wild-type control
- Procedure details: growth (OD600 after 10 h); higher = more growth (less inhibition)
- Cond: compound 0.1 mM; raw OD600 reference: median of DMSO wells 0.49, cell-free background 0.052
Structures can show the parent of a compound that is named as a salt.
Reported endpoint: growth

Compound | Tgt | Obs value
CCC1=C[C@H]2CN3CCc4c([nH]c5ccccc45)[C@](C(=O)OC)(C2)[C@H]13 | E. coli TESEC Alr+ wild-type control | 0.442

Task item: What value of measured growth is listed for `C[C@]12Cc3c[nH]nc3C[C@@H]1CC[C@@H]1[C@@H]2CC[C@@]2(C)[C@H]1CC[C@]2(C)O` ?
Reply: 0.47

Task item: Recorded growth of `CO[C@]12C[C@@H](COC(=O)c3cncc(Br)c3)CN(C)[C@@H]1Cc1cn(C)c3cccc2c13` , please.
Reply: 0.481

Task item: # query: growth of entry CCC(=O)O[C@H]1CC[C@H]2[C@@H]3CCC4=CC(=O)CC[C@]4(C)[C@H]3CC[C@]12C [Testosterone propionate]
Reply: 0.351

Task item: Fill blank: measured growth of the compound C[C@@H]1CN([C@H]2CC[C@](C#N)(c3ccc(F)cc3)CC2)CC[C@]1(C(=O)O)c1ccccc1 [Levocabastine hydrochloride] is ____.
Reply: 0.49

Task item: Look at this compound and give its reported growth. Oc1ccc2c3c1O[C@H]1[C@@H](O)CC[C@@]4(O)[C@@H](C2)N(CC2CCC2)CC[C@]314 [Nalbuphine hydrochloride]
Reply: 0.515

Task item: Tell me the measured growth of C[C@]12C[C@H]3S[C@H]3C[C@@H]1CC[C@@H]1[C@@H]2CC[C@]2(C)[C@@H](O)CC[C@@H]12 [Epitiostanol] , please.
Reply: 0.534

---

- System: E. coli TESEC Mtb Alr
- Procedure details: growth (OD600 after 10 h); higher = more growth (less inhibition)
- Cond: arabinose 10000000 nM; compound 0.1 mM; raw OD600 reference: median of DMSO wells […], cell-free background 0.052
Where a name gives a salt, the structure may show the parent alone.
Reported endpoint: growth

Answered cases to consult:
Compound | Reported endpoint | Obs value
CCOC(=O)c1cncn1[C@H](C)c1ccccc1 [Etomidate] | growth | 0.341
COc1ccc2c(c1)[C@]13CCCC[C@@H]1[C@H](C2)N(C)CC3 [Dextromethorphan hydrobromide monohydrate] | growth | 0.355
O=c1[nH]c2ccccc2n1CCCN1CCC(n2c(=O)[nH]c3cc(Cl)ccc32)CC1 | growth | 0.246
C#C[C@]1(O)CC[C@H]2[C@@H]3CCC4=CC(=O)CCC4=C3C=C[C@@]21CC | growth | 0.165
COc1cc2c(cc1OC)C(C)NCC2 (stereo not drawn) | growth | 0.323
CN[C@@H]1C[C@@H](c2ccc(Cl)c(Cl)c2)c2ccccc21 [Indatraline hydrochloride] | growth | 0.0505
C[C@@H]1CN([C@H]2CC[C@](C#N)(c3ccc(F)cc3)CC2)CC[C@]1(C(=O)O)c1ccccc1 [Levocabastine hydrochloride] | growth | 0.321

Task item: Looking for the measured growth of C[C@]12CCC(=O)C=C1C=C[C@@H]1[C@@H]2CC[C@@]2(C)[C@H]1CC[C@@]2(O)CCC(=O)O [Canrenoic acid potassium salt] , can you help?
Reply: 0.264

---

- System: E. coli TESEC Mtb DapB
- Procedure details: growth (OD600 after 10 h); higher = more growth (less inhibition)
- Cond: arabinose induction (level): High; compound 0.1 mM; raw OD600 reference: median of DMSO wells […], cell-free background 0.041
Counter-ions that a name gives are not always drawn.
Reported endpoint: growth
Answer field: number only, no words.

Compound | growth
C[C@H](N)[C@H](O)c1ccc(O)c(O)c1 | 0.167
CC[C@@]1(O)C(=O)OCc2c1cc1n(c2=O)Cc2cc3ccccc3nc2-1 [Camptothecine (S,+)] | 0.199
CC[N+]1(C)CCCC(OC(=O)C(O)(c2ccccc2)c2ccccc2)C1 (configuration not stated) [Pipenzolate bromide] | 0.234

Task item: Quick one: growth for `CC(C)C[C@H](CN)CC(=O)O` ?
Reply: 0.201

Task item: // query growth value for entry CC(C)C[C@H]1C(=O)N2CCC[C@H]2[C@]2(O)O[C@](NC(=O)[C@@H]3C=C4c5cccc6[nH]c(Br)c(c56)C[C@H]4N(C)C3)(C(C)C)C(=O)N12 [Bromocryptine mesylate]
Reply: 0.236

Task item: I'd like to know its growth. The compound in question is `COc1ccc(CCN)cc1OC`
Reply: 0.188

Task item: Data request, read-out growth, for O=C1CC[C@@]2(O)[C@H]3Cc4ccc(O)c5c4[C@@]2(CCN3CC2CC2)[C@H]1O5 [Naltrexone hydrochloride dihydrate]
Reply: 0.193

Task item: Which growth value belongs to `CCN(C(C)=O)c1cccc(-c2ccnc3c(C#N)cnn23)c1` ?
Reply: 0.179

Task item: Requested field: growth. Item: NCCc1c[nH]c2ccc(O)cc12 [Serotonin hydrochloride]
Reply: 0.209

Task item: Which growth value is on record for COc1ccc2c(c1)[C@]13CCCC[C@@H]1[C@H](C2)N(C)CC3 [Dextromethorphan hydrobromide monohydrate] ?
Reply: 0.17

Task item: Param item = `NCC1(CC(=O)O)CCCCC1` ; retrieve measured growth.
Reply: 0.215

Task item: Find the recorded growth belonging to `C[CH2][Hg][S]c1ccccc1C(=O)[O-].[Na+]` and report it.
Reply: 0.207

Task item: Using the record for C=C1CC[C@@]2(O)[C@H]3Cc4ccc(O)c5c4[C@@]2(CCN3CC2CC2)[C@H]1O5 [Nalmefene hydrochloride] , report its growth.
Reply: 0.194

Task item: Could you tell me which growth is on file for CCOC(=O)c1cncn1[C@H](C)c1ccccc1 [Etomidate] ?
Reply: 0.225

Task item: // lookup growth for c1ccc2nc(N3CCNCC3)ccc2c1 [Quipazine dimaleate salt]
Reply: 0.215

Task item: Fill in: growth of NCC(O)c1ccc(O)cc1 (racemic) [(+,-)-Octopamine hydrochloride] is ___
Reply: 0.203

Task item: // lookup growth for C=CCN1CC[C@]23c4c5ccc(O)c4O[C@H]2C(=O)CC[C@@]3(O)[C@H]1C5 [Naloxone hydrochloride]
Reply: 0.202

---

- Test system: E. coli TESEC Alr+ wild-type control
- Procedure details: growth (OD600 after 10 h); higher = more growth (less inhibition)
- Cond: compound 0.1 mM; raw OD600 reference: median of DMSO wells 0.49, cell-free background 0.052
Where a name gives a salt, the structure may show the parent alone.
Reported endpoint: growth

Compound | growth
CN(C)[C@@H]1C(=O)C(C(N)=O)=C(O)[C@@]2(O)C(=O)C3=C(O)c4c(O)ccc(Cl)c4[C@@](C)(O)[C@H]3C[C@@H]12 [Chlortetracycline hydrochloride] | 0.0491
C[C@]12CCC(=O)C=C1CC[C@@H]1[C@@H]2C(=O)C[C@]2(C)C(=O)CC[C@@H]12 | 0.533

Task item: Consider the compound shown here: NCC(CC(=O)O)c1ccc(Cl)cc1 (racemic) [Baclofen (R,S)] What is its recorded growth?
Reply: 0.456

Task item: State the recorded growth for this entry: CN1[C@@H]2CC[C@H]1C[C@@H](OC(=O)C(CO)c1ccccc1)C2 (some centres not stated) [Atropine sulfate monohydrate]
Reply: 0.418

Task item: # query: growth of entry CC(C)CC(N(C)C)C1(c2ccc(Cl)cc2)CCC1 (configuration not stated) [Sibutramine HCl]
Reply: 0.602

Task item: Could you share which growth value was measured for C[N+]1(C)CCOC(O)(c2ccc(-c3ccc(C4(O)C[N+](C)(C)CCO4)cc3)cc2)C1 (configuration not stated) [Hemicholinium bromide] ?
Reply: 0.559

Task item: Which growth value belongs to `CC(=O)OCC1=C(C(=O)O)N2C(=O)[C@@H](N)[C@H]2SC1` ?
Reply: 0.649
